Field: Protective value. Provide a value for each of the compounds that follow.
- Test system: rice blast fungi (Pyricularia oryzae)
- Type: in vivo
- Test Context: in vivo
Numbers only.

Some compounds with known Protective value results, for comparison:
COc1cccc(C(=O)N[C@H]2COC(=O)[C@H](Cc3ccccc3)[C@@H](OC(=O)C(C)C)[C@H](C)OC2=O)c1O | 83
CC(C)C(=O)O[C@H]1[C@H](C)OC(=O)[C@@H](NC(=O)c2ccccc2O)COC(=O)[C@@H]1Cc1ccccc1 | 98

Working through the 4 compounds below one at a time, give Protective value for each.
1. CC(C)C(=O)O[C@H]1[C@H](C)OC(=O)[C@@H](NC(=O)c2cccc(N)c2O)COC(=O)[C@@H]1Cc1ccccc1
2. CC(C)C(=O)O[C@H]1[C@H](C)OC(=O)[C@@H](NC(=O)c2cccnc2O)COC(=O)[C@@H]1Cc1ccccc1
3. CC(C)C(=O)O[C@H]1[C@H](C)OC(=O)[C@@H](NC(=O)c2cccc(O)n2)COC(=O)[C@@H]1Cc1ccccc1
4. CC(C)C(=O)O[C@H]1[C@H](C)OC(=O)[C@@H](NC(=O)c2nc3ccccc3nc2O)COC(=O)[C@@H]1Cc1ccccc1

1: 86; 2: 86; 3: 90; 4: 100
